Test system: Proteus vulgaris
Protocol Description: Antimicrobial activity against Proteus vulgaris after 18 to 20 hr by agar dilution method
Assay type: functional
Metric Name: MIC (µg/mL)
Supply the numeric figure in µg/mL, leaving out any unit text.

Molecule: CCCCN(CCCC)CN1C(=O)/C(=N\c2ncc(Cc3cc(OC)c(OC)c(OC)c3)c(N)n2)c2cc(Cl)ccc21
Result: 1250
--
Molecule: CCn1cc(C(=O)O)c(=O)c2cc(F)c(N3CCN(CN4C(=O)/C(=N\c5ncc(Cc6cc(OC)c(OC)c(OC)c6)c(N)n5)c5cc(Cl)ccc54)C(C)C3)c(F)c21 (centres undefined)
Result: 0.153
--
Molecule: CCN(CC)CN1C(=O)/C(=N\c2ncc(Cc3cc(OC)c(OC)c(OC)c3)c(N)n2)c2cc(Cl)ccc21
Result: 625

# context switch: different molecule, same MIC
## Input Can you look up the measured MIC of "COc1cc(Cc2cnc(/N=C3\C(=O)N(CN4CCN(C)CC4)c4ccc(Cl)cc43)nc2N)cc(OC)c1OC" for me?
## Output 1250

====

Test system: Morganella morganii
Protocol Description: Antimicrobial activity against Morganella morganii after 18 to 20 hr by agar dilution method
Type: functional
Metric Name: MIC (µg/mL)
Supply the numeric figure in µg/mL, leaving out any unit text.

The following compounds have reported results that may help.
Query Smiles: COc1cc(Cc2cnc(/N=C3\C(=O)N(CN4CCN(c5cccc(Cl)c5)CC4)c4ccc(Cl)cc43)nc2N)cc(OC)c1OC
Metric Name: MIC
Unit Spec: µg/mL
Result: 1250
--
Query Smiles: COc1cc(Cc2cnc(/N=C3\C(=O)N(CN4CCN(c5cc6c(cc5F)c(=O)c(C(=O)O)cn6C5CC5)CC4)c4ccc(Cl)cc43)nc2N)cc(OC)c1OC
Metric Name: MIC
Unit Spec: µg/mL
Result: 1.22
--
Query Smiles: COc1cc(Cc2cnc(/N=C3\C(=O)N(CN4CCN(C(=O)c5ccc(F)cc5)CC4)c4ccc(Cl)cc43)nc2N)cc(OC)c1OC
Metric Name: MIC
Unit Spec: µg/mL
Result: 2500
--
Query Smiles: COc1cc(Cc2cnc(/N=C3\C(=O)N(CN4CCN(c5ccccn5)CC4)c4ccc(Cl)cc43)nc2N)cc(OC)c1OC
Metric Name: MIC
Unit Spec: µg/mL
Result: 312

## Input Can you look up the measured MIC of "COc1cccc(N2CCN(CN3C(=O)/C(=N\c4ncc(Cc5cc(OC)c(OC)c(OC)c5)c(N)n4)c4cc(Cl)ccc43)CC2)c1" for me?
## Output 2500

## Input Can you look up the measured MIC of "CCCCN(CCCC)CN1C(=O)/C(=N\c2ncc(Cc3cc(OC)c(OC)c(OC)c3)c(N)n2)c2cc(Cl)ccc21" for me?
## Output 625

## Input Can you look up the measured MIC of "COc1cc(Cc2cnc(/N=C3\C(=O)N(CN4CCN(C)CC4)c4ccc(Cl)cc43)nc2N)cc(OC)c1OC" for me?
## Output 1250

====

Reported MIC values for the following compounds.
Test system: Proteus vulgaris
Protocol Description: Antimicrobial activity against Proteus vulgaris after 18 to 20 hr by agar dilution method
Assay type: functional
Supply the numeric figure in µg/mL, leaving out any unit text.

The following compounds have reported results that may help.
Compound: COc1cc(Cc2cnc(/N=C3\C(=O)N(CN4CCC(C)CC4)c4ccc(Cl)cc43)nc2N)cc(OC)c1OC
Unit Spec: µg/mL
Result: 1250

Compound: COc1cc(Cc2cnc(/N=C3\C(=O)N(CN4CCN(Cc5ccccc5)CC4)c4ccc(Cl)cc43)nc2N)cc(OC)c1OC
Unit Spec: µg/mL
Result: 625

## Input Can you look up the measured MIC of "COc1cc(Cc2cnc(/N=C3\C(=O)N(CN4CCN(c5cccc(Cl)c5)CC4)c4ccc(Cl)cc43)nc2N)cc(OC)c1OC" for me?
## Output 1250

## Input Can you look up the measured MIC of "COc1cc(Cc2cnc(/N=C3\C(=O)N(CN4CCN(c5ccc(Cl)cc5)CC4)c4ccc(Cl)cc43)nc2N)cc(OC)c1OC" for me?
## Output 1250

## Input Can you look up the measured MIC of COc1cc(Cc2cnc(/N=C3\C(=O)N(CN4CCCCC4C)c4ccc(Cl)cc43)nc2N)cc(OC)c1OC (configuration not stated) for me?
## Output 625

## Input Can you look up the measured MIC of "COc1cc(Cc2cnc(/N=C3\C(=O)N(CN4CCN(c5cc6c(cc5F)c(=O)c(C(=O)O)cn6C5CC5)CC4)c4ccc(Cl)cc43)nc2N)cc(OC)c1OC" for me?
## Output 0.0095

## Input Can you look up the measured MIC of CCn1cc(C(=O)O)c(=O)c2cc(F)c(N3CCNC(C)C3)c(F)c21 (configuration not stated) [LOMEFLOXACIN] for me?
## Output 0.61

====

Tested on: Morganella morganii
Protocol Description: Antimicrobial activity against Morganella morganii after 18 to 20 hr by agar dilution method
Assay type: functional
Reported MIC values for the following compounds.
Supply the numeric figure in µg/mL, leaving out any unit text.

The following compounds have reported results that may help.
Compound: COc1cc(Cc2cnc(/N=C3\C(=O)N(CN4CCN(Cc5ccccc5)CC4)c4ccc(Cl)cc43)nc2N)cc(OC)c1OC
Metric Name: MIC
Result: 625

Compound: COc1cc(Cc2cnc(/N=C3\C(=O)N(CN4CCC(C)CC4)c4ccc(Cl)cc43)nc2N)cc(OC)c1OC
Metric Name: MIC
Result: 1250

Compound: COc1cc(Cc2cnc(/N=C3\C(=O)N(CN4CCCCC4C)c4ccc(Cl)cc43)nc2N)cc(OC)c1OC (stereo not given)
Metric Name: MIC
Result: 1250

Compound: CCn1cc(C(=O)O)c(=O)c2cc(F)c(N3CCNC(C)C3)c(F)c21 (stereo not given) [LOMEFLOXACIN]
Metric Name: MIC
Result: 1.22

# context switch: different compound, same MIC
## Input Hi! What's the reported MIC for O=C(O)c1cn(C2CC2)c2cc(N3CCNCC3)c(F)cc2c1=O [CIPROFLOXACIN] on Morganella morganii?
## Output 0.04

====

Reported MIC values for the following compounds.
System: Plesiomonas
Protocol Description: Antimicrobial activity against Plesiomonas after 18 to 20 hr by agar dilution method
Type: functional
Supply the numeric figure in µg/mL, leaving out any unit text.

## Input Hi! What's the reported MIC for "COc1cc(Cc2cnc(/N=C3\C(=O)N(CN4CCN(Cc5ccccc5)CC4)c4ccc(Cl)cc43)nc2N)cc(OC)c1OC" on Plesiomonas?
## Output 39.1

## Input Hi! What's the reported MIC for "COc1cc(Cc2cnc(/N=C3\C(=O)N(CN4CCN(c5ccccn5)CC4)c4ccc(Cl)cc43)nc2N)cc(OC)c1OC" on Plesiomonas?
## Output 9.76

## Input Hi! What's the reported MIC for "COc1cc(Cc2cnc(/N=C3\C(=O)N(CN4CCN(c5cccc(Cl)c5)CC4)c4ccc(Cl)cc43)nc2N)cc(OC)c1OC" on Plesiomonas?
## Output 19.5

## Input Hi! What's the reported MIC for "COc1cccc(N2CCN(CN3C(=O)/C(=N\c4ncc(Cc5cc(OC)c(OC)c(OC)c5)c(N)n4)c4cc(Cl)ccc43)CC2)c1" on Plesiomonas?
## Output 0.61

## Input Hi! What's the reported MIC for CCn1cc(C(=O)O)c(=O)c2cc(F)c(N3CCNC(C)C3)c(F)c21 (configuration not stated) [LOMEFLOXACIN] on Plesiomonas?
## Output 1.22

## Input Hi! What's the reported MIC for CCn1cc(C(=O)O)c(=O)c2cc(F)c(N3CCN(CN4C(=O)/C(=N\c5ncc(Cc6cc(OC)c(OC)c(OC)c6)c(N)n5)c5cc(Cl)ccc54)C(C)C3)c(F)c21 (configuration not stated) on Plesiomonas?
## Output 1.22

## Input Hi! What's the reported MIC for "CCCCN(CCCC)CN1C(=O)/C(=N\c2ncc(Cc3cc(OC)c(OC)c(OC)c3)c(N)n2)c2cc(Cl)ccc21" on Plesiomonas?
## Output 39.1

====

Reported MIC values for the following compounds.
System: Plesiomonas
Protocol Description: Antimicrobial activity against Plesiomonas after 18 to 20 hr by agar dilution method
Format: functional
Supply the numeric figure in mg/L, leaving out any unit text.

Compound: COc1cc(Cc2cnc(/N=C3\C(=O)N(CN4CCCCC4C)c4ccc(Cl)cc43)nc2N)cc(OC)c1OC (configuration not stated)
Unit Spec: mg/L
Result: 19.5
--
Compound: COc1cc(Cc2cnc(/N=C3\C(=O)N(CN4CCN(c5ccc(F)cc5)CC4)c4ccc(Cl)cc43)nc2N)cc(OC)c1OC
Unit Spec: mg/L
Result: 9.76
--
Compound: COc1cc(Cc2cnc(/N=C3\C(=O)N(CN4CCN(c5c(F)cc6c(=O)c(C(=O)O)cn(C7CC7)c6c5F)CC4C)c4ccc(Cl)cc43)nc2N)cc(OC)c1OC (configuration not stated)
Unit Spec: mg/L
Result: 0.0381

## Input Can you look up the measured MIC of "COc1cc(Cc2cnc(/N=C3\C(=O)N(CN4CCN(C)CC4)c4ccc(Cl)cc43)nc2N)cc(OC)c1OC" for me?
## Output 4.88

## Input Can you look up the measured MIC of "CCN(CC)CN1C(=O)/C(=N\c2ncc(Cc3cc(OC)c(OC)c(OC)c3)c(N)n2)c2cc(Cl)ccc21" for me?
## Output 19.5

## Input Can you look up the measured MIC of "COc1cc(Cc2cnc(/N=C3\C(=O)N(CN(Cc4ccccc4)Cc4ccccc4)c4ccc(Cl)cc43)nc2N)cc(OC)c1OC" for me?
## Output 39.1

## Input Can you look up the measured MIC of "COc1cc(Cc2cnc(/N=C3\C(=O)N(CN4CCN(c5ccc(Cl)cc5)CC4)c4ccc(Cl)cc43)nc2N)cc(OC)c1OC" for me?
## Output 19.5
